Quick list: Bliss interaction score per entry.
test system: S. aureus DSM 20231; test: Bliss interaction score (quartile over a dose matrix) (fitness difference); higher = more antagonism (negative = synergy); conditions: main component drawn;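 also: first quartile when negative (synergy) and third quartile when positive (antagonism)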
Recorded Metric: Bliss interaction score

[[record]]
compound = "CC[C@H](C)[C@H](N)C1=N[C@H](C(=O)N[C@@H](CC(C)C)C(=O)N[C@H](CCC(=O)O)C(=O)N[C@H](C(=O)N[C@H]2CCCCNC(=O)[C@H](CC(N)=O)NC(=O)[C@@H](CC(=O)O)NC(=O)[C@H](Cc3cnc[nH]3)NC(=O)[C@@H](Cc3ccccc3)NC(=O)[C@H]([C@@H](C)CC)NC(=O)[C@@H](CCCN)NC2=O)[C@@H](C)CC)CS1 [Bacitracin] + CC1=C(C(=O)O)N2C(=O)[C@@H](NC(=O)[C@H](N)c3ccccc3)[C@H]2SC1 [Cephalexin]"
recorded_metric = "Bliss interaction score"
measured_result = 0.0487

[[record]]
compound = "CC[C@H](C)[C@H](N)C1=N[C@H](C(=O)N[C@@H](CC(C)C)C(=O)N[C@H](CCC(=O)O)C(=O)N[C@H](C(=O)N[C@H]2CCCCNC(=O)[C@H](CC(N)=O)NC(=O)[C@@H](CC(=O)O)NC(=O)[C@H](Cc3cnc[nH]3)NC(=O)[C@@H](Cc3ccccc3)NC(=O)[C@H]([C@@H](C)CC)NC(=O)[C@@H](CCCN)NC2=O)[C@@H](C)CC)CS1 [Bacitracin] + O=C1CN(/N=C/c2ccc([N+](=O)[O-])o2)C(=O)N1 [Nitrofurantoin]"
recorded_metric = "Bliss interaction score"
measured_result = -0.0336

